target_entity: Bromodomain-containing protein 4 (Homo sapiens, UniProt O60885)
assay_procedure: Inhibition of BRD4 C-terminal bromodomain 2 (unknown origin) expressed in Escherichia coli Bl21(DE3) by alpha-screen assay
Catalogue of IC50 readings, one per entry.
observed_property: IC50

Cc1cc(C)cc(Nc2nccc(-c3c(C)nnn3C3CCNCC3)n2)c1; 0.56 µM
Cc1cc(C)cc(Nc2nccc(-c3c(-c4ccc(F)cc4)nnn3C3CCNCC3)n2)c1; 75 µM
Cc1cc(C)cc(Nc2nccc(-c3c(CO)nnn3C3CCNCC3)n2)c1; 102 µM

---

target_entity: Bromodomain-containing protein 3 (Homo sapiens)
Sequence (Q15059 whole entry): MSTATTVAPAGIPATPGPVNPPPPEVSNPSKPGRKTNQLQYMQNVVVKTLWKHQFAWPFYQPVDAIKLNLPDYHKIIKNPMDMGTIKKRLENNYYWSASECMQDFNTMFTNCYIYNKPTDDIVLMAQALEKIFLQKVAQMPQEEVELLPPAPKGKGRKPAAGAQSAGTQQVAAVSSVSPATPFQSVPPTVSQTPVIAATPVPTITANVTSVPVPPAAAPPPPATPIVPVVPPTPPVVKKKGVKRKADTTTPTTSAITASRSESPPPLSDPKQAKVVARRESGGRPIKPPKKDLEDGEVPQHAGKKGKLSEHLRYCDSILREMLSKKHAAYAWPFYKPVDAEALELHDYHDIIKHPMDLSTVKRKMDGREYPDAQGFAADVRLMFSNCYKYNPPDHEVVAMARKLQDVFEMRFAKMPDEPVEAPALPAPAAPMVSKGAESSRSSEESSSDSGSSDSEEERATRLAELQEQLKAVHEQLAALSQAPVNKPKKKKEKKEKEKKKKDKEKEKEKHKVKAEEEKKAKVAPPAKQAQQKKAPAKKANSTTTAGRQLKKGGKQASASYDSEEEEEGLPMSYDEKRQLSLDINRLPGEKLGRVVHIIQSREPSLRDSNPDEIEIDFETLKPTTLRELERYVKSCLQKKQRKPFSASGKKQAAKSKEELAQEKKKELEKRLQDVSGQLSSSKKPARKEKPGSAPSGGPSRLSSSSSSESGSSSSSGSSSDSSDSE
assay_procedure: Inhibition of BRD3 C-terminal bromodomain 2 (unknown origin) expressed in Escherichia coli Bl21(DE3) by alpha-screen assay
pIC50: −log10 of the molar value.
observed_property: pIC50

Cc1cc(C)cc(Nc2nccc(-c3c(C)nnn3C3CCNCC3)n2)c1; 5.62
Cc1cc(C)cc(Nc2nccc(-c3c(CO)nnn3C3CCNCC3)n2)c1; 3.51
Cc1cc(C)cc(Nc2nccc(-c3c(-c4ccc(F)cc4)nnn3C3CCNCC3)n2)c1; 3.96

---

Each record here notes measured IC50.
target_entity: Bromodomain testis-specific protein (Homo sapiens)
observed_property: IC50

Fc1ccc(-c2ncn(C3CCNCC3)c2-c2ccnc(Oc3cc(F)cc(F)c3)n2)cc1; > 250 µM
Cc1cc(C)cc(Nc2nccc(-c3c(-c4ccc(F)cc4)ncn3C3CCNCC3)n2)c1; > 250 µM
Cc1ccc(Nc2nccc(-c3c(-c4ccc(F)cc4)ncn3C3CCNCC3)n2)cc1C; > 250 µM

---

Measured IC50 values are reported for all entries that follow.
target_entity: Bromodomain-containing protein 3 (Homo sapiens)
assay_procedure: Inhibition of BRD3 N-terminal bromodomain 1 (unknown origin) expressed in Escherichia coli Bl21(DE3) by alpha-screen assay
observed_property: IC50 (µM)

Cc1cc(C)cc(Nc2nccc(-c3c(CO)nnn3C3CCNCC3)n2)c1; 200
Cc1cc(C)cc(Nc2nccc(-c3c(C)nnn3C3CCNCC3)n2)c1; 0.77
Cc1cc(C)cc(Nc2nccc(-c3c(-c4ccc(F)cc4)nnn3C3CCNCC3)n2)c1; 51
Cc1cc(C)cc(Nc2nccc(-c3c(-c4ccc(F)cc4)ncn3C3CCNCC3)n2)c1; 11.2

---

Reported values of IC50 for individual entries
target_entity: Bromodomain testis-specific protein (Homo sapiens, UniProt Q58F21)
observed_property: IC50 (µM)

Cc1cc(C)cc(Nc2nccc(-c3c(-c4ccc(F)cc4)ncn3C3CCNCC3)n2)c1; 3.5
Cc1ccc(Nc2nccc(-c3c(-c4ccc(F)cc4)ncn3C3CCNCC3)n2)cc1C; 4.7

---

// values below are reported pIC50
target_entity: Bromodomain testis-specific protein (Homo sapiens, UniProt Q58F21)
assay_procedure: Inhibition of BRDT N-terminal bromodomain 1 (unknown origin) expressed in Escherichia coli Bl21(DE3) by alpha-screen assay
pIC50: −log10 of the molar value.
observed_property: pIC50

Cc1cc(C)cc(Nc2nccc(-c3c(-c4ccc(F)cc4)ncn3C3CCNCC3)n2)c1; 5.28
Cc1cc(C)cc(Nc2nccc(-c3c(CO)nnn3C3CCNCC3)n2)c1; 3.96
Cc1cc(C)cc(Nc2nccc(-c3c(C)nnn3C3CCNCC3)n2)c1; 5.80
Cc1cc(C)cc(Nc2nccc(-c3c(-c4ccc(F)cc4)nnn3C3CCNCC3)n2)c1; 4.44
